System: Caco-2 cells
experiment-summary: Membrane permeability (Papp) across Caco-2 cell monolayers
assay-conditions: Caco-2 monolayer, basolateral to apical direction
Property: Papp BL- to- AP; scope: individual compounds
Form entry: value (cm/s x 10^6) — number only.

Examples with answers:
compound	Papp BL- to- AP [cm/s x 10^6]
O=C1CCCc2c1ccn2CCCCN1CCN(c2cccc(C(F)(F)F)c2)CC1	15.7
O=C1CCCc2c1ccn2CCN1CCN(c2cccc(C(F)(F)F)c2)CC1	7.6
O=C1CCCc2c1ccn2CCCN1CCN(c2cccc(C(F)(F)F)c2)CC1	8.8
O=C1CCCc2c1ccn2CCCN1CCN(c2cccc(Cl)c2)CC1	13.1
CN1CCN(C2=Nc3cc(Cl)ccc3Nc3ccccc32)CC1 [Clozapine, clozapine, reference compound]	7.4
COc1ccccc1N1CCN(CCn2ccc3c2CCCC3=O)CC1	15.5

Query :: May I ask what Papp BL- to- AP has been recorded for "O=C1CCCc2c1ccn2CCCN1CCN(c2ncccn2)CC1" ?
Result :: 25.3

Query :: Now the compound "O=C1CCCc2c1ccn2CCN1CCN(c2cccc(Cl)c2)CC1"
Result :: 9.4

Query :: Another compound to look at: "COc1ccccc1N1CCN(CCCn2ccc3c2CCCC3=O)CC1"
Result :: 20.0

---

Form field: Papp AP- to- BL (one value per entry).
System: Caco-2 cells
experiment-summary: Membrane permeability (Papp) across Caco-2 cell monolayers
assay-conditions: Caco-2 monolayer, apical to basolateral direction
Field format: number, assumed cm/s x 10^6, no unit text.

compound	Papp AP- to- BL [cm/s x 10^6]
O=C1CCCc2c1ccn2CCN1CCN(c2cccc(Cl)c2)CC1 [NEO-376]	20.4
O=C1CCCc2c1ccn2CCCN1CCN(c2cccc(C(F)(F)F)c2)CC1 [NEO-356]	21.5
O=C1CCCc2c1ccn2CCN1CCN(c2cccc(C(F)(F)F)c2)CC1 [NEO-359]	24.0

Query :: Request body: readout Papp AP- to- BL, system Caco-2 cells, query COc1ccccc1N1CCN(CCCn2ccc3c2CCCC3=O)CC1 [NEO-370] . Return the value.
Result :: 32.1

Query :: Let us now turn to O=C1CCCc2c1ccn2CCCCN1CCN(c2cccc(C(F)(F)F)c2)CC1 [NEO-392]
Result :: 27.1

Query :: Further, for O=C1CCCc2c1ccn2CCCN1CCN(c2cccc(Cl)c2)CC1 [NEO-363] ?
Result :: 18.0

Query :: Next compound: O=C1CCCc2c1ccn2CCCN1CCN(c2ncccn2)CC1 [NEO-381]
Result :: 32.9

Query :: Now consider CN1CCN(C2=Nc3cc(Cl)ccc3Nc3ccccc32)CC1 [Clozapine, clozapine, reference compound] .
Result :: 15.3

Query :: Then COc1ccccc1N1CCN(CCn2ccc3c2CCCC3=O)CC1 [NEO-377] ?
Result :: 26.0

---

Test system: Caco-2 cells
readout: PERMEABILITY

Use the examples below as a reference point.
compound	PERMEABILITY
O=C1CCCc2c1ccn2CCN1CCN(c2cccc(C(F)(F)F)c2)CC1 [NEO-359]	High
COc1ccccc1N1CCN(CCCn2ccc3c2CCCC3=O)CC1 [NEO-370]	High
CC(C)NCC(O)COc1cccc2ccccc12 (centres unmarked) [Propranolol, reference compound]	High
O=C1CCCc2c1ccn2CCCN1CCN(c2ncccn2)CC1 [NEO-381]	High

With those in mind, consider the next compound.
Query :: Enter reported PERMEABILITY observed with Caco-2 cells for O=C1CCCc2c1ccn2CCCN1CCN(c2cccc(C(F)(F)F)c2)CC1 [NEO-356]
Result :: High

---

Tested on: mice
experiment-summary: Conditioned avoidance responding (CAR, active avoidance)
Format: in vivo
assay-conditions: Mus musculus; mice, SC 20 minutes before the test session; read-out: Conditioned Avoidance Responding, Latency ED50
Recorded ED50, one value per entry.
Give just the numeric value; mg/kg need not be written.

smiles-text	ED50 / mg/kg
O=C1CCCc2c1ccn2CCN1CCN(c2cccc(Cl)c2)CC1	17.5
COc1ccccc1N1CCN(CCn2ccc3c2CCCC3=O)CC1	3

Query :: // ED50 lookup, key: "O=C1CCCc2c1ccn2CCCCN1CCN(c2cccc(C(F)(F)F)c2)CC1"
Result :: 3.25

Query :: What about "COc1ccccc1N1CCN(CCCn2ccc3c2CCCC3=O)CC1" ?
Result :: 3.25

Query :: Further, for "O=C1CCCc2c1ccn2CCN1CCN(c2cccc(C(F)(F)F)c2)CC1" ?
Result :: 100

---

Known RATIO Papp^B-A/ Papp^A-B of a selection of molecules
System: Caco-2 cells
experiment-summary: Membrane permeability (Papp) across Caco-2 cell monolayers
assay-conditions: Caco-2 monolayer
Give a plain numeric answer without units written out.

Consider the reported RATIO Papp^B-A/ Papp^A-B for these molecules:
molecule	target-entity	readout	reported
O=C1CCCc2c1ccn2CCN1CCN(c2cccc(C(F)(F)F)c2)CC1	Caco-2 cells	RATIO Papp^B-A/ Papp^A-B	0.32
O=C1CCCc2c1ccn2CCCN1CCN(c2ncccn2)CC1	Caco-2 cells	RATIO Papp^B-A/ Papp^A-B	0.77
COc1ccccc1N1CCN(CCCn2ccc3c2CCCC3=O)CC1	Caco-2 cells	RATIO Papp^B-A/ Papp^A-B	0.67
O=C1CCCc2c1ccn2CCCN1CCN(c2cccc(C(F)(F)F)c2)CC1	Caco-2 cells	RATIO Papp^B-A/ Papp^A-B	0.41
O=C1CCCc2c1ccn2CCCN1CCN(c2cccc(Cl)c2)CC1	Caco-2 cells	RATIO Papp^B-A/ Papp^A-B	0.75

Query :: # lookup: RATIO Papp^B-A/ Papp^A-B of "O=C1CCCc2c1ccn2CCCCN1CCN(c2cccc(C(F)(F)F)c2)CC1"
Result :: 0.58

Query :: Please give the result for "COc1ccccc1N1CCN(CCn2ccc3c2CCCC3=O)CC1" too.
Result :: 0.60

Query :: Queued: "O=C1CCCc2c1ccn2CCN1CCN(c2cccc(Cl)c2)CC1"
Result :: 0.43

Query :: What do you have for CN1CCN(C2=Nc3cc(Cl)ccc3Nc3ccccc32)CC1 [Clozapine, clozapine, reference compound] ?
Result :: 0.65
